For each entry below, report its growth inhibition value.
assay: NCI Yeast Anticancer Drug Screen. Data for the rad50EPP+ strain (AID 151);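 also: 0% = growth of vehicle-treated control cultures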; details: S. cerevisiae rad50 mutant strain, at 11.0 µM, hits give high values
This is part of a sample that, as a whole, favours compounds with a hit. Of some 79,000 tested, about 15% had one in any assay. Active and inactive are the calls of the source. Rule as the data show it: active = growth inhibition above about 70%; inactive = the rest.

growth inhibition in this record for CCNCC(=O)O[C@]1(CC)C(=O)OCc2c1cc1n(c2=O)Cc2cc3ccccc3nc2-1 : 9% (inactive)

growth inhibition in this record for OC(c1ccc(Br)cc1)C(Cl)(Cl)Cl (stereo unspecified) : 4% (inactive)

growth inhibition in this record for C[CH2][Sn]([CH2]C)([O]S(C)(=O)=O)[O]S(C)(=O)=O : -25% (inactive)

growth inhibition in this record for CCC1(O)C(=O)OCc2c1cc1n(c2=O)Cc2cc3ccccc3nc2-1 (stereo unspecified) : 70% (active)

growth inhibition in this record for Oc1c(Br)cc(Br)cc1Br : 30% (inactive)

growth inhibition in this record for Nc1ccccc1C(=O)OCCc1ccccc1 : 13% (inactive)

---

assay: NCI Yeast Anticancer Drug Screen. Data for the rad50 strain (AID 155);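 also: 0% = growth of vehicle-only cultures of the same strain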; settings: S. cerevisiae rad50 strain growth inhibition; at 50.0 µM; hits give high values
This is part of a sample that, as a whole, favours compounds with a hit. Of some 79,000 tested, about 15% had one in any assay.
parameter: growth inhibition (%)
The response must be a number in % with no trailing unit.

growth inhibition in this record for O=C(O)C(O)(c1ccccc1)C1(O)CCCCC1 (stereo unspecified) : 1.7

growth inhibition in this record for Cc1c([N+](=O)[O-])oc2ccc3ccccc3c12 : 87

growth inhibition in this record for Nc1cc(Cl)ccc1C(=O)c1ccccc1Cl : 98.8

growth inhibition in this record for O=P(Nc1ccccc1)(Oc1ccccc1)N1CCN(c2ccccc2)CC1 (stereo unspecified) : 71.2

growth inhibition in this record for CC(=O)[O][Hg][c]1c(C)c(C)c(C)c(C)c1C : 87.5

growth inhibition in this record for COC(=O)C1=C(C)NC(=S)NC1c1ccc(N(CCCl)CCCl)cc1Cl (stereo unspecified) : 51.1

---

assay: NCI Yeast Anticancer Drug Screen. Data for the mec2-1 strain (AID 157); details: S. cerevisiae mec2-1 strain, at 50.0 µM (retest, dose inferred, filed as 5.0)
This is part of a sample that, as a whole, favours compounds with a hit. Of some 79,000 tested, about 15% had one in any assay. Active and inactive are the calls of the source. Rule as the data show it: active = growth inhibition above about 70%; inactive = the rest.
Can you answer with just one of these options? y = active, n = inactive

Problem: Call for entry O=c1ssc(Cl)c1Cl :
Result: y

Problem: Call for entry C=C(C)C(=O)OC1CCC2(C)C(CCC3C2CCC2(C)C(c4ccc(=O)oc4)CC4OC432)C1 (configuration not stated) :
Result: n

Problem: Call for entry CC[C@@]1(O)CC(OC2CC(N3CCOCC3)C(O)C(C)O2)c2c(O)c3c(c(O)c2[C@H]1O)C(=O)c1cccc(O)c1C3=O (some centres not stated) :
Result: y

Problem: Call for entry CC(=O)OC(C)(C)/C=C/C(=O)[C@](C)(O)[C@H]1[C@H](O)C[C@@]2(C)[C@@H]3CC=C4[C@@H](C[C@H](O)[C@H](O)C4(C)C)[C@]3(C)C(=O)C[C@]12C :
Result: y

Problem: Call for entry CC(C)(Br)C(=O)C(Br)Br :
Result: y

Problem: Call for entry O=C(Cl)c1ccccn1 :
Result: y

Problem: Call for entry CC(=O)NC1C(S[As](C)C)OC(COC(C)=O)C(OC(C)=O)C1OC(C)=O (configuration not stated) :
Result: y

Problem: Call for entry OC1CCCC[CH]1[Hg][Cl] (configuration not stated) :
Result: y

Problem: Call for entry CC(NCCN(C)C)C1CC2CCCCN2C1 (configuration not stated) :
Result: n

Problem: Call for entry CCOC(=O)C1=C(C)NC(=O)NC1c1ccc(N(CCCl)CCCl)cc1Cl (configuration not stated) :
Result: n

Problem: Call for entry CCCCCCCC[N+](CCCC)(CCCC)CCCC (tested in a mixture with another compound) :
Result: y

Problem: Call for entry CN(C)C(=[Se])[Se]C(=[Se])N(C)C :
Result: y

Problem: Call for entry O=C(Nc1ccccc1)c1cc([N+](=O)[O-])ccc1O :
Result: y

Problem: Call for entry CCN(CCCl)CCCCNc1c2ccccc2nc2ccc(OC)cc12 :
Result: n

Problem: Call for entry CC(=O)[O-].[Zn].c1ccc(/C(=N\Nc2ccccn2)c2ccccn2)cc1 :
Result: n

Problem: Call for entry COc1c(Br)cc(/C=C(/C)[N+](=O)[O-])cc1Br :
Result: n

Problem: Call for entry CC(C)C(=O)CP(=O)(O)O :
Result: n

Problem: Call for entry CC1=C(O)C(=O)C=C2C1=CC=C1[C@@]2(C)CCC2(C)[C@@H]3C[C@@H](C)C(=O)C[C@]3(C)CC[C@]12C (some centres not stated) :
Result: y

Problem: Call for entry Cc1ccc2ccccc2c1NC1=NCCO1 :
Result: n

Problem: Call for entry C[As](c1ccc(Br)cc1)c1ccc(Br)cc1 :
Result: n

Problem: Call for entry C[N+](CCCl)(CCCl)Cc1cccc2cccc([N+](=O)[O-])c12 :
Result: n

Problem: Call for entry Cc1ccc(N=P(c2ccccc2)(c2ccccc2)c2ccccc2)cc1.[I][Hg][I] :
Result: y

---

assay: NCI Yeast Anticancer Drug Screen. Data for the mlh1 rad18 strain (AID 175); details: S. cerevisiae mlh1 rad18 strain growth inhibition; at 50.0 µM (retest, dose inferred, filed as 5.0); hits give high values
About 79,000 compounds went through this panel and 15% of them were active in at least one assay; those are over-represented in the sample as a whole.
Label label 0 if growth inhibition falls below 50%; label label 1 in every other case.

Problem: Could you tell me if the measured growth inhibition of C=CCN(CC=C)CC(C(C)=O)C(c1ccccc1)c1c(O)c2ccccc2oc1=O (stereo not given) reaches 50% or more?
Result: label 0

Problem: Could you tell me if the measured growth inhibition of O=[N+]([O-])c1ccc(SC2CCCCCCC2Cl)c([N+](=O)[O-])c1 (stereo not given) reaches 50% or more?
Result: label 1

Problem: Could you tell me if the measured growth inhibition of CC1=C[C@H]2O[C@@H]3C[C@H]4OC(=O)/C=C\C=C\C(C(C)O)OCC(O)C(C)CC(=O)OC[C@@]2(C[C@@H]1O)[C@]4(C)[C@@]31CO1 (stereo not given in full) reaches 50% or more?
Result: label 1

Problem: Could you tell me if the measured growth inhibition of O=C(/C=C(\c1ccccc1)N1CC1)c1ccccc1 reaches 50% or more?
Result: label 1

Problem: Could you tell me if the measured growth inhibition of COc1ccc(C(Cc2ccc(Cl)c(Cl)c2)NCCO)cc1 (stereo not given) reaches 50% or more?
Result: label 0

Problem: Could you tell me if the measured growth inhibition of CCN(CCCl)CCCCNc1c2ccccc2nc2ccc(OC)cc12 reaches 50% or more?
Result: label 0

Problem: Could you tell me if the measured growth inhibition of COc1c(NC(=O)CC(C)=O)[c]([Hg][O]C(C)=O)c(OC)c(Cl)[c]1[Hg][O]C(C)=O reaches 50% or more?
Result: label 1

Problem: Could you tell me if the measured growth inhibition of CCCCCNC(=O)c1c(O)[nH]c(=S)[nH]c1=O reaches 50% or more?
Result: label 0

Problem: Could you tell me if the measured growth inhibition of CCN(CC)CC.CCOc1ccc(NC(=O)N=C=[N-])cc1.[CH-]1CCCCC1.[CH-]1CCCCC1.[CH-]1CCCCC1.[Cl-].[Sn+4] reaches 50% or more?
Result: label 1

Problem: Could you tell me if the measured growth inhibition of CN1c2cccc[c]2[Sn]([CH3])([CH3])[c]2ccccc21 reaches 50% or more?
Result: label 1

---

assay: NCI Yeast Anticancer Drug Screen. Data for the wt1 strain (AID 149);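 also: 0% = growth of vehicle-treated wt1 cultures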; details: S. cerevisiae wt1 strain (SPY 50644) growth inhibition; at 100.0 µM; hits give high values
About 79,000 compounds went through this panel and 15% of them were active in at least one assay; those are over-represented in the sample as a whole.
parameter: growth inhibition (%)
The response must be a number in % with no trailing unit.

growth inhibition in this record for CN(N=O)C(=O)NNC(=O)N(C)N=O : 38

growth inhibition in this record for OC(c1ccc(Br)cc1)C(Cl)(Cl)Cl (configuration not stated) : 99

growth inhibition in this record for CCS(=O)(=O)[O][Sn]([CH2]C)([CH2]C)[O]S(=O)(=O)CC : 61

growth inhibition in this record for CCN(CC)CCBr : -8

growth inhibition in this record for c1ccc2cc3n[se]nc3cc2c1 : 72

growth inhibition in this record for CCC1(OC(=O)CN)C(=O)OCc2c1cc1n(c2=O)Cc2cc3ccccc3nc2-1 (configuration not stated) : 94

growth inhibition in this record for CC[C@@]1(O)C(=O)OCc2c1cc1n(c2=O)Cc2cc3c(NC(=O)CN)cccc3nc2-1 : 0
